- targetOrSystem: AAK1 (full-length human protein) (Homo sapiens, UniProt Q2M2I8)
- Sequence (Q2M2I8 1-863 isoform Q2M2I8-2): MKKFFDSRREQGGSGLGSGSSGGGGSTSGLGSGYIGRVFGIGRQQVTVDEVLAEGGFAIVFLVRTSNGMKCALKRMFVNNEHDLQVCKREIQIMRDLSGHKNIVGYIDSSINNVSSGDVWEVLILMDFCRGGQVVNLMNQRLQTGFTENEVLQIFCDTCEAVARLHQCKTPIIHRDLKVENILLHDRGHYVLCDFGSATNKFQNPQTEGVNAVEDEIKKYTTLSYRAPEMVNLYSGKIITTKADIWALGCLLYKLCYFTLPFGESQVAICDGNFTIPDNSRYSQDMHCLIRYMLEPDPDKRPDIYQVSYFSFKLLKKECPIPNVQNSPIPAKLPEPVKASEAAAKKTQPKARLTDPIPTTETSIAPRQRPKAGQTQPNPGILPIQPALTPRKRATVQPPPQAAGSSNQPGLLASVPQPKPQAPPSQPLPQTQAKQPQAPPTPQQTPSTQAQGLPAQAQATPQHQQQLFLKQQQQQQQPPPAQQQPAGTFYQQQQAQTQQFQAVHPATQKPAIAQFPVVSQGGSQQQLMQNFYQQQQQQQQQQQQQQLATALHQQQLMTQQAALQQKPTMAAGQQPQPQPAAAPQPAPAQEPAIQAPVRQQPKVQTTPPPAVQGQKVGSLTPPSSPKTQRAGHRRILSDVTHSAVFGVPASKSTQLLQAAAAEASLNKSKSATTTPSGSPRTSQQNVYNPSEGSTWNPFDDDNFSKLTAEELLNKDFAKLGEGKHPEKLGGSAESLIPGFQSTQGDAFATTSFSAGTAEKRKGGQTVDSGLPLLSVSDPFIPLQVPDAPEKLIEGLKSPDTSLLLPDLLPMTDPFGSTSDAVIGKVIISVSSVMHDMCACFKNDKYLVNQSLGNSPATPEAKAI
- protocolNotes: P81 filter plate assay
- Assay type: biochemical
- condition: 0.2 nM-scale full-length human AAK1, Mu2 substrate, 33P-ATP, one hour at room temperature; class symbols
pIC50: −log10 of the molar value.
parameter: pIC50

Task: In one line, give reported pIC50 of the entry COc1ncccc1-c1cnc2ccc(-c3cnn(CCC(C)C)c3)nn12 .
Result: ≥ 8.00

Task: Tell me its pIC50 given Cc1cnc2ccc(-c3ccn(CCC(C)C)c(=O)c3)nn12 as the entry.
Result: ≥ 8.00

Task: // fetch pIC50 given entry CC(C)CCn1cc(-c2ccc3ncc(Br)n3n2)cn1
Result: ≥ 8.00

Task: Supply pIC50 value. Item: COc1ncccc1-c1cnc2ccc(-c3cnn(C(=O)OC(C)C)c3)nn12
Result: ≥ 8.00

Task: Note pIC50 for the compound shown: CC(C)(C)Cn1cc(-c2ccc3ncc(Cl)n3n2)cn1
Result: 7.00 to 8.00

Task: For the compound CC(C)CNC(=O)c1cccc(-c2ccc3ncc(-c4ccc(CN)cc4)n3n2)c1 , give its measured pIC50 value.
Result: ≥ 8.00
